The entries below come with measured pIC50 values attached.
# target-of-assay: p300 HAT domain (residues 1287-1666) (Homo sapiens (Human), UniProt Q09472)
# Sequence (Q09472 1287-1666): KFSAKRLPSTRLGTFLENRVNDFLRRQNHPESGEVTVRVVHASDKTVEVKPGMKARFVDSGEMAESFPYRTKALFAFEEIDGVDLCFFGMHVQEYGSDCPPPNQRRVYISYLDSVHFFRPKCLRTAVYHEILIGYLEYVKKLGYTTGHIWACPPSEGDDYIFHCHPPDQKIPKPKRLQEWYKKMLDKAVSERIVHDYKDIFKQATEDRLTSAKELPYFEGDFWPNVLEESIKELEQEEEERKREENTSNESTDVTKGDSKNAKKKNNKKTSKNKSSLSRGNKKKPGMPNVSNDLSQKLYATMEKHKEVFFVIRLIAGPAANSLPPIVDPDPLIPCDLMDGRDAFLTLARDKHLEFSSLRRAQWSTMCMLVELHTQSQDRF
# test-details: p300 HAT SPA assay (scintillation proximity assay, acetylation of biotinylated H3(1-21) peptide)
# Type: biochemical
# conditions-used: average of at least 2 replicate titrations
The read-out pIC50 is expressed as -log10 of concentration in moles per litre.

Guide cases for pIC50, answers given:
- COC1CN(c2ccc(NC(=O)C(NCC(C)c3ccc(C#N)cc3)c3ccccc3)nc2)C1 (single isomer, unassigned) [32 Isomer 2]: 7.73
- N#Cc1ccc(CCNC(C(=O)Nc2ccc(N3CC4(COC4)C3)cn2)c2ccccc2)cc1 (single isomer, unassigned) [80 Isomer 1]: 6.70
- Cc1nc(NC(=O)C(NCC(C)c2ccc(C#N)cc2)c2ccccc2)ccc1-c1cnn(C)c1 (single isomer, unassigned) [39 Isomer 3]: 7.75
- CCN1CCN(c2ccc(NC(=O)C(NC[C@@H](C)c3ccc(C#N)cc3)c3ccccc3)nc2)CC1=O (single isomer, unassigned) [102 Isomer 2]: 5.81

Input Cc1cn(-c2ccc(NC(=O)C(NCCc3ccc(C#N)cc3)c3ccccc3)nc2)cn1 (single isomer, unassigned) [28 Isomer 2] . Output pIC50: 5.55

The compound CC1C(=O)N(C)CCN1c1ccc(NC(=O)C(NC[C@@H](C)c2ccc(C#N)cc2)c2ccccc2)nc1 (single isomer, unassigned) [126 Isomer 1] showed pIC50 equal to 7.68

Form: compound = Cn1cc(-c2ccc(NC(=O)C(NCC(c3ccc(C#N)cc3)C(F)(F)F)c3ccccc3)nc2)cn1 (single isomer, unassigned) [149 Isomer 2] ; pIC50 = 7.72

Given item Cn1cc(-c2cnc(NC(=O)C(NCCc3ccc(C#N)cc3)c3ccccc3)cn2)cn1 (single isomer, unassigned) [56 Isomer 1] , the value recorded as its pIC50 is 6.38

---

# target-of-assay: p300 HAT domain (residues 1287-1666) (Homo sapiens (Human), UniProt Q09472)
Entries whose IC50 is below 0.2 µM take rule met; entries at or above 0.2 µM take rule not met.

Use the examples below as a reference point.
• CCN1CCN(c2ccc(NC(=O)C(NC[C@@H](C)c3ccc(C#N)cc3)c3ccccc3)nc2)CC1=O (single isomer, unassigned) [102 Isomer 1] = rule met
• Cn1cc(-c2ccc3c(c2)CCN3C(=O)C(NCCc2ccc(C#N)cc2)c2ccccc2)cn1 (single isomer, unassigned) [152 Isomer 1] = rule not met
• Cc1ccc(CCNC(C(=O)Nc2ccc(-c3cnn(C)c3)cn2)c2ccccc2)cn1 (single isomer, unassigned) [141 Isomer 1] = rule met
• Cc1cnn(-c2ccc(NC(=O)C(NCC(C)c3ccc(C#N)cc3)c3ccccc3)nc2)c1 (single isomer, unassigned) [62 Isomer 1] = rule not met
• Cn1cc(-c2cnc(NC(=O)C(NCCc3ccc(C#N)cc3)c3ccccc3)c(Cl)c2)cn1 (single isomer, unassigned) [43 Isomer 1] = rule met

Prompt: Record CC(CNC(C(=O)Nc1ccc(-c2cnn(C(C)(C)CO)c2)cn1)c1ccccc1)c1ccc(C#N)cc1 (single isomer, unassigned) [8 Isomer 3] : is its IC50 strictly below 0.2 µM?
Completion: rule not met

---

# target-of-assay: p300 HAT domain (residues 1287-1666) (Homo sapiens (Human), UniProt Q09472)
pIC50: −log10 of the molar value.
Form field: pIC50 (one value per entry).

Worked cases, answers included:
- CC(=O)N1CCN(c2ccc(NC(=O)C(NCCc3ccc(C#N)cc3)c3ccccc3)nc2)CC1 (single isomer, unassigned) [72 Isomer 2]: < 5.70
- CC1(C)CCN(c2ccc(NC(=O)C(NCCc3ccc(C#N)cc3)c3ccccc3)nc2)CC1 (single isomer, unassigned) [65 Isomer 2]: < 5.30
- CS(=O)(=O)N1CCN(c2ccc(NC(=O)C(NCCc3ccc(C#N)cc3)c3ccccc3)nc2)CC1 (single isomer, unassigned) [68 Isomer 1]: < 5.70

Form field, pIC50 with p300 HAT domain (residues 1287-1666) (Homo sapiens (Human), UniProt Q09472), item N#Cc1ccc(CCNC(C(=O)Nc2ccc(N3CCCC3)cn2)c2ccccc2)cc1 (single isomer, unassigned) [37 Isomer 1] : 7.18

Fill in: p300 HAT domain (residues 1287-1666) (Homo sapiens (Human), UniProt Q09472) pIC50 for Cn1cc(-c2ccc(NC(=O)C(NCCc3ccc(C#N)cc3)c3ccccc3)c(Cl)c2)cn1 (single isomer, unassigned) [26 Isomer 2] = 5.73

Tested on p300 HAT domain (residues 1287-1666) (Homo sapiens (Human), UniProt Q09472), the item Cc1cc(C#N)nn1CCNC(C(=O)Nc1ccc(-c2cnn(C)c2)cn1)c1ccccc1 (single isomer, unassigned) [145 Isomer 2] showed pIC50 equal to < 5.70

---

Reported pIC50, p300 HAT domain (residues 1287-1666) (Homo sapiens (Human), UniProt Q09472).
The quantity pIC50 is defined as the negative base-10 logarithm of the molar concentration.

• C[C@H](CNC(C(=O)Nc1ccc(-c2cnn(CC(N)=O)c2)cn1)c1ccccc1)c1ccc(C#N)cc1 (single isomer, unassigned) [147 Isomer 1] = 5.73
• Cn1cc(-c2ccc(NC(=O)C(NCCc3ccc(C#N)cc3)c3ccc(C#N)cc3)nc2)cn1 (single isomer, unassigned) [119 Isomer 2] = 5.80
• Cc1c(-c2ccc(NC(=O)C(NC[C@@H](C)c3ccc(C#N)cc3)c3ccccc3)nc2)cnn1C (single isomer, unassigned) [114 Isomer 2] = 7.98
• CCN1CCN(c2ccc(NC(=O)C(NCCc3ccc(C#N)cc3)c3ccccc3)nc2)C1=O (single isomer, unassigned) [76 Isomer 1] = 7.06
• Cc1nc(NC(=O)C(NCC(C)c2ccc(C#N)cc2)c2ccccc2)ccc1-c1cnn(C)c1 (single isomer, unassigned) [39 Isomer 4] = 6.52

Tested on p300 HAT domain (residues 1287-1666) (Homo sapiens (Human), UniProt Q09472): Cc1cnc(-c2ccc(NC(=O)C(NCCc3ccc(C#N)cc3)c3ccccc3)cc2)[nH]1 (single isomer, unassigned) [11 Isomer 1] . Observed pIC50: 6.55

Hey, p300 HAT domain (residues 1287-1666) (Homo sapiens (Human), UniProt Q09472) data for CC(CNC(C(=O)Nc1ccc(-c2cn[nH]c2)cn1)c1ccccc1)c1ccc(C#N)cc1 (single isomer, unassigned) [104 Isomer 4] : pIC50 came out at 5.99

Observed pIC50 on p300 HAT domain (residues 1287-1666) (Homo sapiens (Human), UniProt Q09472), entry C[C@H](CNC(C(=O)Nc1ccc(-c2cnn(CC(=O)N(C)C)c2)cn1)c1ccccc1)c1ccc(C#N)cc1 (single isomer, unassigned) [84 Isomer 1] , equals 6.40

---

Readings of pIC50 for the listed molecules
# target-of-assay: p300 HAT domain (residues 1287-1666) (Homo sapiens (Human))
Lab note — pIC50 values are minus log10 of concentrations in M.

Use these answered entries as a reference point.
- Cc1ccc(CCNC(C(=O)Nc2ccc(-c3cnn(C)c3)cn2)c2ccccc2)cc1 (single isomer, unassigned) [48 Isomer 1]: 7.38
- Cn1cnc(-c2ccc(NC(=O)C(NCCc3ccc(C#N)cc3)c3ccccc3)nc2)c1 (single isomer, unassigned) [13 Isomer 2]: 7.18
- N#Cc1ccc(CCNC(C(=O)Nc2ccc(N3CCC(F)(F)C3)cn2)c2ccccc2)cc1 (single isomer, unassigned) [77 Isomer 1]: 7.40
- Cc1cn(-c2ccc(NC(=O)C(NCCc3ccc(C#N)cc3)c3ccccc3)nc2)cn1 (single isomer, unassigned) [28 Isomer 1]: 7.34

For reference, reported pIC50 for CC(CNC(C(=O)Nc1ccc(-c2cnn(C)c2)cn1)c1ccccc1)c1ccc(C#N)cc1F (single isomer, unassigned) [90 Isomer 1] stands at 6.68

---

# IC50 values compiled below
# target-of-assay: p300 HAT domain (residues 1287-1666) (Homo sapiens (Human))

- Cc1ccc(-c2ccc(NC(=O)C(NCC(C)c3ccc(C#N)cc3)c3ccccc3)nc2)nn1 (single isomer, unassigned) [15 Isomer 4]: 41.3 nM
- Cc1nc(NC(=O)C(NCC(C)c2ccc(C#N)cc2)c2ccccc2)ccc1-c1cnn(C)c1 (single isomer, unassigned) [39 Isomer 2]: > 2000 nM
- COc1ccccc1C(NCCc1ccc(C#N)cc1)C(=O)Nc1ccc(-c2cnn(C)c2)cn1 (single isomer, unassigned) [87 Isomer 2]: > 2000 nM
- Cn1cc(-c2ccc(NC(=O)[C@@H](NCCc3ccc(Cl)cc3)c3ccccc3)cc2)cn1 (single isomer, unassigned) [5 Isomer 1]: 239 nM
- COC1(C)CCN(c2ccc(NC(=O)C(NCCc3ccc(C#N)cc3)c3ccccc3)nc2)CC1 (single isomer, unassigned) [53 Isomer 2]: > 2000 nM

The record that follows has no IC50 shown yet.
Entry CC(CNC(C(=O)Nc1ccc(N2CCN(C)C(=O)C2)cn1)c1cnn(C)c1)c1ccc(C#N)cc1 (single isomer, unassigned) [136 Isomer 2] ; assay system p300 HAT domain (residues 1287-1666) (Homo sapiens (Human)); IC50 recorded at > 2000 nM
